Measurement description: non-covalent RecA intein splicing inhibitors, dose response, biochemical, cell-free, fluorescence, secondary screen (AID 449750)
Activity calls are given as the source filed them. No rule for the calls is given here.
Choose the fitting class; nothing outside active, inactive is accepted.

Called result for Cc1ccc(S(=O)(=O)Nc2ccc(O)c3ccccc23)c(C)c1 active

Here is the next compound: COc1cc(OC)cc(-c2nnc(Sc3ccc(C=O)cc3[N+](=O)[O-])o2)c1 active

Here is the next compound: O=C(c1ccc(Cl)cc1)c1c[nH]c(C(=O)C(Cl)(Cl)Cl)c1 active

Here is the next compound: CN(C(=O)c1ccc(S(=O)(=O)c2cccc(Cl)c2)c([N+](=O)[O-])c1)C1CCCCC1 active

Here is the next compound: CCOC(=O)c1oc2nc(CC(C)C)c3c(c2c1N)CCC3 inactive
